Would you kindly list Kd for each of these binders?
# target.entity: T1, HEN1-RHK389,397,477AAA (Arabidopsis thaliana, UniProt Q9C5Q8 1-942, R389A;H397A;K477A)
# T1 sequence: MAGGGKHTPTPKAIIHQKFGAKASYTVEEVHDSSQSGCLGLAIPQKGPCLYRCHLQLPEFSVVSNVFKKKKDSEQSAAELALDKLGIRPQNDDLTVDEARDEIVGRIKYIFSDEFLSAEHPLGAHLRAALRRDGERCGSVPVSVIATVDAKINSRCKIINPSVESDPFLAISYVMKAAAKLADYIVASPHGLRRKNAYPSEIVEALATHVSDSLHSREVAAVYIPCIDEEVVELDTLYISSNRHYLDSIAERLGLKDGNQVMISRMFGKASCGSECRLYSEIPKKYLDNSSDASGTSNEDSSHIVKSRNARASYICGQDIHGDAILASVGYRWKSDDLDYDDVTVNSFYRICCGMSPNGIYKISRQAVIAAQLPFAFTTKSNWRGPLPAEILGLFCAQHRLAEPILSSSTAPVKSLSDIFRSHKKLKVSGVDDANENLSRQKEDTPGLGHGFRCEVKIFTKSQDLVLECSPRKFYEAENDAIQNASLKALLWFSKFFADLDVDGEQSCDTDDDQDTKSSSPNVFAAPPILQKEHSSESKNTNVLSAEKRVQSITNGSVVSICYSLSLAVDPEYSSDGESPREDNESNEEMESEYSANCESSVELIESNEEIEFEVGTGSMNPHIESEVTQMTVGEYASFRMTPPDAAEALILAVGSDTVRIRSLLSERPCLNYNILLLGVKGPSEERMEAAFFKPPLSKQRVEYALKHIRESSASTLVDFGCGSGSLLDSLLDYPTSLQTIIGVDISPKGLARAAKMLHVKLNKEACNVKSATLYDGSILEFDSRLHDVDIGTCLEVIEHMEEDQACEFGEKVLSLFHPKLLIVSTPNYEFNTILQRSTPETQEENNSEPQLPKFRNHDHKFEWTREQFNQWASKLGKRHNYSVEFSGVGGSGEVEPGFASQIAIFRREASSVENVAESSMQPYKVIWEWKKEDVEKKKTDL
# assay.name: EMSA
Only the number, expressed in nM, is required.

In: # query: Kd of entry miR173/miR173* (dsRNA) RNA 1: UUCGCUUGCAGAGAGAAAUCAC RNA 2: GAUUCUCUGUGUAAGCGAAAG
Out: 302

In: Try siR173/siR173* (dsRNA) RNA 1: UUAACGCUUGCAGAGAGAAUCAC RNA 2: GAUUCUCUCUGCAAGCGUUAAAG next.
Out: 293
